B1: TPR t1 (parent)
chain: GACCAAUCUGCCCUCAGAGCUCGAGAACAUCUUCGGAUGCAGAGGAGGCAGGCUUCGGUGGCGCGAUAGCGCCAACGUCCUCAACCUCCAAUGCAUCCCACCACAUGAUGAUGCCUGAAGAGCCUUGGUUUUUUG

- Variants of: B1
- Protocol details: polymerase ribozyme fitness, log enrichment relative to wild type (log ratio); higher = more active; in vitro selection for triplet polymerase activity
Experimental endpoint: polymerase ribozyme fitness (log ratio)

q: Need polymerase ribozyme fitness (log ratio), item C13A U81A
a: -3.27

q: I would be grateful if you could share the reported polymerase ribozyme fitness (log ratio) for C12U U21A G35A .
a: -4.8

q: I have this variant here, G77U U92G , and I need its recorded polymerase ribozyme fitness (log ratio).
a: -2.77

q: Given the entry C3U A29C G61U , report its measured polymerase ribozyme fitness (log ratio).
a: -2.81

q: Requested field: polymerase ribozyme fitness (log ratio). Item: A6U A50C
a: 0.0675

q: Need polymerase ribozyme fitness (log ratio), item C11U C79G
a: -1.69

q: Requested field: polymerase ribozyme fitness (log ratio). Item: U7G G39A C114G
a: -2.02

q: For C4G G45A C114U , what is its reported polymerase ribozyme fitness (log ratio)?
a: -4.45

q: Quick one: polymerase ribozyme fitness (log ratio) of U7G C49A C123U ?
a: 0.939

q: # lookup: polymerase ribozyme fitness (log ratio) of C53A C88U C104U
a: 0.665

q: Item under review: C79U C89A C115A . Reported polymerase ribozyme fitness (log ratio)?
a: -0.609

q: Any idea what polymerase ribozyme fitness (log ratio) was measured for U7G G65A ?
a: -4.77

q: For U78C A111G G117A , what is its reported polymerase ribozyme fitness (log ratio)?
a: -2.7

q: Which polymerase ribozyme fitness (log ratio) is reported for this variant? C64A U78A G93A
a: -6.61
